test: Steady-state plasma pharmacokinetics of enzastaurin and metabolites in native Chinese cancer patients (LC-MS/MS, noncompartmental); assay type: in vivo, human; settings: human, plasma, po; 500 mg orally once daily, washout days 15-17, geometric mean and range, N = 21
Structures can show the parent of a compound that is named as a salt.
parameter: half-life (h)

1) Cn1cc(C2=C(c3cn(C4CCN(Cc5ccccn5)CC4)c4ccccc34)C(=O)NC2=O)c2ccccc21 [enzastaurin, Enzastaurin monohydrochloride]: 14

----------
assay: Steady-state plasma pharmacokinetics of enzastaurin and metabolites in native Chinese cancer patients (LC-MS/MS, noncompartmental); type: in vivo, human; settings: human, plasma, po, 500 mg, 500 mg orally once daily, steady state, median and range, N = 23
Counter-ions that a name gives are not always drawn.
parameter: Tmax

1. Cn1cc(C2=C(c3cn(C4CCN(Cc5ccccn5)CC4)c4ccccc34)C(=O)NC2=O)c2ccccc21 [enzastaurin, Enzastaurin monohydrochloride]: ≤ 4 h
